Reference source for all entries: ChEMBL document CHEMBL4118226

Experiment: Clearance in rat
Format: ADME, organism-based
Conditions: in vivo
ENDPOINT_LABEL: clearance (L/h/kg)
Write the value in L/h/kg as a bare number.

Use the examples below as a reference point.
SMILES_INPUT: CC(=O)Nc1nc(C)c(-c2cc3c(c(NS(C)(=O)=O)c2)C(=O)N([C@@H](C)C2CC2)C3)s1
clearance, L/h/kg: 0.042
//
SMILES_INPUT: CNS(=O)(=O)c1cc(-c2sc(NC(C)=O)nc2C)cc2c1C(=O)N([C@@H](C)C1CC1)C2
clearance, L/h/kg: 0.264

API: the following record is the query input.
Request: Looking for the measured clearance of CC(=O)Nc1nc(C)c(-c2cc3c(c(S(C)(=O)=O)c2)C(=O)N([C@@H](C)C2CC2)C3)s1 , can you help?
Response: 0.378
